- TARGET SYSTEM: T1, human MASP-2 protein (recombinant, full-length, C-terminal tag) (human, UniProt O00187 16-686)
- T1 construct: The protein was secreted and purified on an anti-FLAG or anti-HIS column; also called hMASP-2; Full-length human MASP-2 protein; not shown: C-terminal HIS-tag or FLAG-tag
- T1 sequence (O00187 16-686): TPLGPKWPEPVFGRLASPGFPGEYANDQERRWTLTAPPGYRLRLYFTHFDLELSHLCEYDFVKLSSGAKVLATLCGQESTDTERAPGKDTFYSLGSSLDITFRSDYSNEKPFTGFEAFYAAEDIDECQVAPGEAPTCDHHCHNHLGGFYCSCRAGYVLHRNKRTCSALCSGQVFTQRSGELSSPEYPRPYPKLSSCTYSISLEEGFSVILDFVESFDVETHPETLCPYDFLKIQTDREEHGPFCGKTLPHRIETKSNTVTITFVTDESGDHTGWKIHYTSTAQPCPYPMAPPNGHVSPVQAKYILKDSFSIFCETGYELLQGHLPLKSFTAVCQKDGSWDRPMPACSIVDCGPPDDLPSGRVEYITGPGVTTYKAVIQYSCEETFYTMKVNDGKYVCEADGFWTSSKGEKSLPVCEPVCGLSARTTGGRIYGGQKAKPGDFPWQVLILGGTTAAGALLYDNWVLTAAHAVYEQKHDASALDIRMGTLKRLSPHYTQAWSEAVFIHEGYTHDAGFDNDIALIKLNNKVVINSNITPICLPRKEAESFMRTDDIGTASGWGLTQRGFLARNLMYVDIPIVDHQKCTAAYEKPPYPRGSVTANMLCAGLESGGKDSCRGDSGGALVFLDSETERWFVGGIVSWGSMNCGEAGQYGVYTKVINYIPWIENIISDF
- TEST PROTOCOL: BLI (ForteBio Octet RED96), antibody on Protein A biosensor, human MASP-2 in solution (100, 50, 25 nM)
Recorded kon by entry

BINDER: 129C10 HdLb (antibody, human IgG4, V domains shown, Humanized) VH: QVQLVQSGAEVKKPGASVKVSCKASGYTFTDYYINWVRQAPGQGLEWMGWIFPGSESAYHSQKFQGRATLTVDTSISTAYMELSRLRSDDTAVYYCTRGDRSGPFAYWGQGTLVTVSS VL: DVVMTQSPLSLPVTLGQPASISCKSSQSLLYSNGKTYLNWLQQRPGQSPRRLIYLVSKLDSGVPDRFSGSGSGADFTLKISRVEAEDVGVYYCVQVTHFPFTFGQGTKLEIK
UNIT NAME: M⁻¹ s⁻¹
kon: 36000

BINDER: 129C10 HaLb (antibody, human IgG4, V domains shown, Humanized) VH: QVQLVQSGAEVKKPGASVKVSCKASGYTFTDYYINWVRQAPGQGLEWMGWIFPGSESAYHSEKFKARVTMTVDTSISTAYMELSRLRSDDTAVYYCTRGDRSGPFAYWGQGTLVTVSS VL: DVVMTQSPLSLPVTLGQPASISCKSSQSLLYSNGKTYLNWLQQRPGQSPRRLIYLVSKLDSGVPDRFSGSGSGADFTLKISRVEAEDVGVYYCVQVTHFPFTFGQGTKLEIK
UNIT NAME: M⁻¹ s⁻¹
kon: 25500
